Assay: yeast display, Sf9 membrane polyspecificity reagent, FACS + sequencing; frameworks hold sequencing errors
reported endpoint: polyreactivity (PSR sort gate)

>>> value_reported("QVQLGESGGALVQAGGSLRLSCAASGFTFCPYAMGWYRQAPGKERELDAAISQSGGRTSYADSVKGRFTISRDNAKNTVYLQMNSLKPEDTAVYYCAKRAYGYRSIYRMDYWGQGTLVTVSS")
"high polyreactivity"
>>> value_reported("QVQLVESGGGLVQAGGSLRLSCAASGGIFPQYSMGWYTQAPGKERELVSAISRRGGRTYYADSVKGRFTISRDTAKNTVYLQMNSLKPEDTAVYYCAKRALTYTRYRVIYDYWGQGTQVTVSS")
"high polyreactivity"
>>> value_reported("QVQHVESGGGLVQAGGSLRLSCAASGSIFYYYTMGWYRQAPGKERELVAAITSGGSTYYADSVKGRFTISRDNAKNTVYIQMNSLKPDDTAVYYCAAEYHSFLWDMDYWGQGTQVTVST")
"high polyreactivity"

---

Assay: yeast display, Sf9 membrane polyspecificity reagent, FACS + sequencing; frameworks hold sequencing errors
reported endpoint: polyreactivity (PSR sort gate)

>>> value_reported("QVQLVESGGGLVQAGGSLRLICAASGRIFRGNVMGWYRQAPGKERELDAAISSGGRTYYADSVKGRFTISRDNAKNTVYLQMNSLKPEDSAVYYCAKAFREGEGKFDYWGQGTQVTVSS")
"high polyreactivity"
>>> value_reported("QVQLVESGGGLVQAGGSLRLSSAASGGTFTKNAMGWYRQAPGKERELVAAISWRGTSTYYADSVKGRFSISRDNAKNTVYLQMNSLKPDDTAVYFCLPWVGYGRYKPGYKYDYWGQGTQVTVSS")
"high polyreactivity"
